- target_system: T1, cynomolgus monkey transferrin receptor 1 (cTfR1) (cynomolgus monkey, UniProt H9EXL1 89-760 (rhesus entry))
- T1 construct: The ELISA against cTfR1 is not described in the text
- T1 sequence (chain, as listed by the source): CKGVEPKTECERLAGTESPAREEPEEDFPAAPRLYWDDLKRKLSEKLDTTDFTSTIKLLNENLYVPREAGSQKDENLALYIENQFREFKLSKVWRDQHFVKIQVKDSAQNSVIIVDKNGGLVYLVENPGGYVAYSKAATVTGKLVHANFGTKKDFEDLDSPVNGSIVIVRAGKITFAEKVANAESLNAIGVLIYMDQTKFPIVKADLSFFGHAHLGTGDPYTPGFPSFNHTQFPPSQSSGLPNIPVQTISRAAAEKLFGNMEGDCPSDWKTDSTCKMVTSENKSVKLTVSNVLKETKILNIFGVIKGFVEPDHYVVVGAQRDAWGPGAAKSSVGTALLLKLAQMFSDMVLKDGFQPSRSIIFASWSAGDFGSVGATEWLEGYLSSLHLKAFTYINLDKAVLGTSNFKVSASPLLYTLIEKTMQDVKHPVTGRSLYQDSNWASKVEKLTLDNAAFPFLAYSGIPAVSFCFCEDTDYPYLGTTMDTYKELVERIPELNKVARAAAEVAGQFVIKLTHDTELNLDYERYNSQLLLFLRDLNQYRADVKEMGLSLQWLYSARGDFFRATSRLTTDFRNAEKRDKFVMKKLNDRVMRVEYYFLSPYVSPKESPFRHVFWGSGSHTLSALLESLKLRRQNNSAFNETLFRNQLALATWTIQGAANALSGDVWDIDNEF
- procedure_summary: competition ELISA, Fab
measurement_label: Kd (nM)
Answers are plain numbers, in nM.

Known Kd results, listed for orientation:
binder	Kd, nM
Fab0002 (Fab, V domains shown) VH: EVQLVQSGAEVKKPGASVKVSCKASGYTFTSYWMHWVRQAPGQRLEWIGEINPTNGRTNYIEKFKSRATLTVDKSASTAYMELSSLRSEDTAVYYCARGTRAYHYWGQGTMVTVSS VL: DIQMTQSPSSLSASVGDRVTITCRASDNLYSNLAWYQQKPGKSPKLLVYDATNLADGVPSRFSGSGSGTDYTLTISSLQPEDFATYYCQHFWGTPLTFGQGTKVEIKR	33.8
Fab0066 (Fab, V domains shown) VH: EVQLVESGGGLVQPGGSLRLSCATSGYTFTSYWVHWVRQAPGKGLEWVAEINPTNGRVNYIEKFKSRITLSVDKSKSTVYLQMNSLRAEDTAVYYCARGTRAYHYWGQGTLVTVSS VL: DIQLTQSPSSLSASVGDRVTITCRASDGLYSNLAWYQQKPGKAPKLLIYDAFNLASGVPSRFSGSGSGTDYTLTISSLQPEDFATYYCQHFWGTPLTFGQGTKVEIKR	9.4

# context switch: different binder, same Kd
Provide Kd value for the following binder: Fab0068 (Fab, V domains shown) VH: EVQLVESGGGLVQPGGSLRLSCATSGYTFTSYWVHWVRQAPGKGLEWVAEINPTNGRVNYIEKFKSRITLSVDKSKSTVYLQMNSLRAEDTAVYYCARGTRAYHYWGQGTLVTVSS VL: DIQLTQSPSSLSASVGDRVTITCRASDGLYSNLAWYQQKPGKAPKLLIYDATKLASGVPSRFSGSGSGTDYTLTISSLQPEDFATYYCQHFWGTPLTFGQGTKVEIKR 7.37
